B1: HDV Ribozyme (parent)
chain: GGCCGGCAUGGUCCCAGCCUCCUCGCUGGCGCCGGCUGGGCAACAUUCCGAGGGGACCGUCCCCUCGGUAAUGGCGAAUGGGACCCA

Variants of: B1
Assay: self-cleavage, relative activity (ratio to wild type); higher = more cleavage; co-transcriptional
measurementKind: self-cleavage

G2U G10A; 0
G6A C15G; 0.133
G67C G74A; 0.415
G38A U46A; 0
U23A G50U; 0.964

With those in mind, consider the next variant.
Notebook: G50A C86U , self-cleavage read as 1.06
